// data source = ChEMBL document CHEMBL3611988

- study system: Sodium-dependent noradrenaline transporter (Homo sapiens)
- Sequence (P23975 whole entry): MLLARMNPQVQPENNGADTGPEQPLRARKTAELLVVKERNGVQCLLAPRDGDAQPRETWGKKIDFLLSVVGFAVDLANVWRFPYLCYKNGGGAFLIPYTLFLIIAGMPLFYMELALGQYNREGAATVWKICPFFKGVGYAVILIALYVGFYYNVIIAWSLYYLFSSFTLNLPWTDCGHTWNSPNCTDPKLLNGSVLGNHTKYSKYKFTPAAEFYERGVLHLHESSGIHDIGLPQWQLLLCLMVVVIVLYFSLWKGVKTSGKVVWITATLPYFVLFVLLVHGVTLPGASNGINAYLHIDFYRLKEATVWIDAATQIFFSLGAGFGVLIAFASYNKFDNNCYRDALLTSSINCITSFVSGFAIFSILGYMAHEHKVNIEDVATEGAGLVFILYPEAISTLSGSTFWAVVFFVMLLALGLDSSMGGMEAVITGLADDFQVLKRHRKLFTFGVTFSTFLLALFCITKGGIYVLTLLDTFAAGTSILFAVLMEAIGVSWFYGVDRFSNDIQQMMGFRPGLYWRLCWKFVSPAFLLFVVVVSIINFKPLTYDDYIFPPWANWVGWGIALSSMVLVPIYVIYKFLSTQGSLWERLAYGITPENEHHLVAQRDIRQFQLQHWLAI
- run description: Inhibition of human NET expressed in HEK293 cells assessed as reduction of […] reuptake using [3H]-NET at 3 uM after 15 mins by liquid scintillation counting relative to venlafaxine HCl
- Assay type: cell-based
Provide the recorded Ratio for the entries that follow.
Answers are plain numbers.

O=C(NCCN1CCC(Cc2ccccc2)CC1)c1cc2ccccc2s1 = 1.92
O=C(NCCN1CCC(Cc2ccccc2)CC1)c1ccc(-c2ccccc2)cc1 = 1.49
COc1ccc2cc(C(=O)NCCN3CCC(Cc4ccccc4)CC3)ccc2c1 = 1.97
O=C(NCCCN1CCC(Cc2ccccc2)CC1)c1cc2ccccc2o1 = 1.54
O=C(NCCCN1CCC(Cc2ccccc2)CC1)c1cc2ccccc2[nH]1 = 1.72
O=C(NCCN1CCC(Cc2ccccc2)CC1)C(c1ccc(Cl)cc1)c1ccc(Cl)cc1 = 1.54
O=C(NCCCN1CCC(Cc2ccccc2)CC1)c1ccc2ccccc2n1 = 0.62
O=C(NCCN1CCC(Cc2ccccc2)CC1)c1cc2ccccc2[nH]1 = 1.49

Batch lookup, Ratio per entry.
1. O=C(NCCN1CCC(Cc2ccccc2)CC1)C(c1ccccc1)c1ccccc1
2. O=C(NCCN1CCC(Cc2ccccc2)CC1)c1cc2ccccc2o1
3. O=C(NCCCN1CCC(Cc2ccccc2)CC1)c1cc2ccccc2s1
4. O=C(NCCCN1CCC(Cc2ccccc2)CC1)C(c1ccc(Cl)cc1)c1ccc(Cl)cc1
5. O=C(NCCCN1CCC(Cc2ccccc2)CC1)c1ccc(-c2ccccc2)cc1

1.04
1.09
1.8
1.37
1.59

Bench note: what Ratio did "O=C(NCCCN1CCC(Cc2ccccc2)CC1)C(c1ccccc1)c1ccccc1" show? 1.19

----------
- study system: Sodium-dependent noradrenaline transporter (Homo sapiens)
- run description: Inhibition of human NET expressed in HEK293 cells assessed as reduction of […] reuptake using [3H]-NET after 15 mins by liquid scintillation counting
- Type: cell-based
reported property: pIC50
Numbers only, as −log10 of the molar value.

O=C(NCCCN1CCC(Cc2ccccc2)CC1)c1ccc(-c2ccccc2)cc1 = 6.82
O=C(NCCN1CCC(Cc2ccccc2)CC1)c1ccc(-c2ccccc2)cc1 = 6.33

State recorded pIC50 for all listed molecules.
1. O=C(NCCCN1CCC(Cc2ccccc2)CC1)c1cc2ccccc2[nH]1
2. O=C(NCCCN1CCC(Cc2ccccc2)CC1)c1cc2ccccc2o1
3. O=C(NCCCN1CCC(Cc2ccccc2)CC1)c1cc(Cl)cc(Cl)c1

[6.57, 6.21, 6.57]

State recorded pIC50 for all listed molecules.
1. O=C(NCCCN1CCC(Cc2ccccc2)CC1)c1ccc2ccccc2c1
2. COc1ccc2cc(C(=O)NCCCN3CCC(Cc4ccccc4)CC3)ccc2c1
3. O=C(NCCN1CCC(Cc2ccccc2)CC1)c1ccc2ccccc2n1
4. O=C(NCCCN1CCC(Cc2ccccc2)CC1)c1ccc2cc(Br)ccc2c1
5. O=C(NCCCN1CCC(Cc2ccccc2)CC1)c1cc2ccccc2s1

1. 6.47
2. 6.62
3. 6.56
4. 6.05
5. 5.32

----------
- study system: Sodium-dependent serotonin transporter (Homo sapiens, UniProt P31645)
- run description: Inhibition of human SERT expressed in HEK293 cells assessed as reduction of serotonin reuptake using [3H]-SERT at 1 uM after 15 mins by liquid scintillation counting relative to venlafaxine HCl
- Assay type: cell-based
- Sequence (P31645 whole entry, looked up): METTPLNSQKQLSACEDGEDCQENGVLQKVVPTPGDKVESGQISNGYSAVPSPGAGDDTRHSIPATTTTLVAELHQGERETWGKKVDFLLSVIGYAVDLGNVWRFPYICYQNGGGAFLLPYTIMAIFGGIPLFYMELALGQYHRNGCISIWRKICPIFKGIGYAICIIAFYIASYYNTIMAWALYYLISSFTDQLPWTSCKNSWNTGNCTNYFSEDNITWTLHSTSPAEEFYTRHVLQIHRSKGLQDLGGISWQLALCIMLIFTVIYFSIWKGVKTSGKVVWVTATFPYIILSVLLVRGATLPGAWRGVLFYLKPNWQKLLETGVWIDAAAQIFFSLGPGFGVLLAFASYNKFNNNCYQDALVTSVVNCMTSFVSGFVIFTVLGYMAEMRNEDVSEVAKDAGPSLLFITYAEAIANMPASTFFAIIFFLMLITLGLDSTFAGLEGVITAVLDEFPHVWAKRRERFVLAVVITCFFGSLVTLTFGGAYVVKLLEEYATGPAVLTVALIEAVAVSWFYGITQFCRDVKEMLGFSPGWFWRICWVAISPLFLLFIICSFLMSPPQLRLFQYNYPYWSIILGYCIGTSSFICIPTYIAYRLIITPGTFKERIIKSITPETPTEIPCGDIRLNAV
Threshold-based label: Ratio under 0.6 gives yes, Ratio not under 0.6 gives no.

O=C(NCCCN1CCC(Cc2ccccc2)CC1)c1cc(Cl)cc(Cl)c1 = no

Regarding "O=C(NCCN1CCC(Cc2ccccc2)CC1)c1cccc2ccccc12" , kindly confirm whether its Ratio is beneath 0.6. no

Thanks! And "O=C(NCCCN1CCC(Cc2ccccc2)CC1)c1ccc2ccccc2n1" ? no

// next record "O=C(NCCCN1CCC(Cc2ccccc2)CC1)c1ccc2ccccc2c1" no

----------
- study system: Sodium-dependent serotonin transporter (Homo sapiens, UniProt P31645)
- run description: Inhibition of human SERT expressed in HEK293 cells assessed as reduction of serotonin reuptake using [3H]-SERT after 15 mins by liquid scintillation counting
- Sequence (P31645 whole entry): as the sequence (P31645 whole entry, looked up) above
reported property: pIC50
Answers are plain numbers, as −log10 of the molar value.

Reference set, count: 4
O=C(NCCN1CCC(Cc2ccccc2)CC1)c1ccc(-c2ccccc2)cc1 = 6.01
O=C(NCCN1CCC(Cc2ccccc2)CC1)c1ccc2ccccc2n1 = 6.10
O=C(NCCCN1CCC(Cc2ccccc2)CC1)c1cc2ccccc2o1 = 6.30
O=C(NCCCN1CCC(Cc2ccccc2)CC1)c1cc(Cl)cc(Cl)c1 = 6.37

Give pIC50 for each of the items listed below.
1. O=C(NCCCN1CCC(Cc2ccccc2)CC1)c1cc2ccccc2s1
2. O=C(NCCCN1CCC(Cc2ccccc2)CC1)c1ccc(-c2ccccc2)cc1
3. O=C(NCCCN1CCC(Cc2ccccc2)CC1)c1ccc2cc(Br)ccc2c1

1. 6.35
2. 7.25
3. 5.72

Provide the reported pIC50 of each entry below, same order.
1. COc1ccc2cc(C(=O)NCCCN3CCC(Cc4ccccc4)CC3)ccc2c1
2. O=C(NCCCN1CCC(Cc2ccccc2)CC1)c1cc2ccccc2[nH]1
3. O=C(NCCCN1CCC(Cc2ccccc2)CC1)c1ccc2ccccc2c1

1. 6.49
2. 6.26
3. 6.97

----------
Consider the following compounds; for each one, report its Ratio.
- study system: Sodium-dependent noradrenaline transporter (Homo sapiens)
- run description: Inhibition of human NET expressed in HEK293 cells assessed as reduction of […] reuptake using [3H]-NET at 1 uM after 15 mins by liquid scintillation counting relative to GBR-12909
- Type: cell-based

Please review the following examples before continuing.
O=C(NCCCN1CCC(Cc2ccccc2)CC1)c1cccc2ccccc12 = 1.32
O=C(NCCN1CCC(Cc2ccccc2)CC1)c1cc(Cl)cc(Cl)c1 = 1
O=C(NCCN1CCC(Cc2ccccc2)CC1)c1ccc2ccccc2n1 = 0.53
O=C(NCCCN1CCC(Cc2ccccc2)CC1)c1ccc2ccccc2c1 = 1.03
O=C(NCCCN1CCC(Cc2ccccc2)CC1)c1ccc2cc(Br)ccc2c1 = 0.94
O=C(NCCN1CCC(Cc2ccccc2)CC1)c1ccc2cc(Br)ccc2c1 = 0.83
O=C(NCCN1CCC(Cc2ccccc2)CC1)c1cccc2ccccc12 = 0.1
COc1ccc2cc(C(=O)NCCCN3CCC(Cc4ccccc4)CC3)ccc2c1 = 1

Provide reported Ratio for each item, in the same order as listed.
1. O=C(NCCCN1CCC(Cc2ccccc2)CC1)c1cc(Cl)cc(Cl)c1
2. O=C(NCCN1CCC(Cc2ccccc2)CC1)c1ccc2ccccc2c1

1: 1.12; 2: 1.27

----------
Exercise: state measured Ratio for each of the compounds provided.
- study system: Sodium-dependent serotonin transporter (Homo sapiens)
- run description: Inhibition of human SERT expressed in HEK293 cells assessed as reduction of serotonin reuptake using [3H]-SERT at 1 uM after 15 mins by liquid scintillation counting relative to venlafaxine HCl
- Assay type: cell-based
Give bare numbers.

O=C(NCCCN1CCC(Cc2ccccc2)CC1)c1cccc2ccccc12 = 0.6
O=C(NCCN1CCC(Cc2ccccc2)CC1)c1ccc(-c2ccccc2)cc1 = 0.98
O=C(NCCN1CCC(Cc2ccccc2)CC1)c1cc2ccccc2o1 = 0.78
O=C(NCCCN1CCC(Cc2ccccc2)CC1)c1cc2ccccc2[nH]1 = 0.84
O=C(NCCN1CCC(Cc2ccccc2)CC1)c1cc2ccccc2s1 = 0.77

I have 6 compounds here; please give me Ratio for each one.
1. COc1ccc2cc(C(=O)NCCN3CCC(Cc4ccccc4)CC3)ccc2c1
2. O=C(NCCCN1CCC(Cc2ccccc2)CC1)c1ccc2cc(Br)ccc2c1
3. O=C(NCCCN1CCC(Cc2ccccc2)CC1)c1cc2ccccc2o1
4. O=C(NCCN1CCC(Cc2ccccc2)CC1)c1cc(Cl)cc(Cl)c1
5. O=C(NCCCN1CCC(Cc2ccccc2)CC1)c1cc2ccccc2s1
6. O=C(NCCN1CCC(Cc2ccccc2)CC1)C(c1ccc(Cl)cc1)c1ccc(Cl)cc1

1: 0.63; 2: 1.11; 3: 0.84; 4: 0.64; 5: 1.1; 6: 0.4

For each listed entry, give its Ratio.
1. O=C(NCCCN1CCC(Cc2ccccc2)CC1)c1ccc(-c2ccccc2)cc1
2. O=C(NCCN1CCC(Cc2ccccc2)CC1)c1ccc2ccccc2c1
3. O=C(NCCN1CCC(Cc2ccccc2)CC1)c1ccc2ccccc2n1

1: 1.01; 2: 0.8; 3: 1.03

Consider the following items and state reported Ratio for each.
1. COc1ccc2cc(C(=O)NCCCN3CCC(Cc4ccccc4)CC3)ccc2c1
2. O=C(NCCCN1CCC(Cc2ccccc2)CC1)C(c1ccc(Cl)cc1)c1ccc(Cl)cc1
3. O=C(NCCN1CCC(Cc2ccccc2)CC1)C(c1ccccc1)c1ccccc1
4. O=C(NCCCN1CCC(Cc2ccccc2)CC1)C(c1ccccc1)c1ccccc1
5. O=C(NCCN1CCC(Cc2ccccc2)CC1)c1cc2ccccc2[nH]1
6. O=C(NCCN1CCC(Cc2ccccc2)CC1)c1ccc2cc(Br)ccc2c1

1. 0.98
2. 0.19
3. 0.29
4. 0.26
5. 0.58
6. 0.51
